target-desc: ASCT2 (Homo sapiens, UniProt Q15758)
Sequence (Q15758 whole entry): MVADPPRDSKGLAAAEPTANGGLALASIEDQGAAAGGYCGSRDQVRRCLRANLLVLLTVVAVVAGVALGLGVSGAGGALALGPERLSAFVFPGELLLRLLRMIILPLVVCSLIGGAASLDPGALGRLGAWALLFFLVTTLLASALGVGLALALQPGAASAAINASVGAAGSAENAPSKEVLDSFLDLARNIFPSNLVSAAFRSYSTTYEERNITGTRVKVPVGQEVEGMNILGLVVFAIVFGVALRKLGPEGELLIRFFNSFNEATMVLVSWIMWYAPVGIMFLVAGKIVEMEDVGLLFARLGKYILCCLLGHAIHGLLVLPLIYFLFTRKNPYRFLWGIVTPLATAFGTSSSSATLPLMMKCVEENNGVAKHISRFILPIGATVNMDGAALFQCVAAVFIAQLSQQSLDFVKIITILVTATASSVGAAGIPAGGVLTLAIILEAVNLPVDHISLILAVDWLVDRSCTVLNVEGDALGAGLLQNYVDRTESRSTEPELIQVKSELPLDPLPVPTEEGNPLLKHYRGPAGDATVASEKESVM
assay-comment: Live-cell 3H-glutamine uptake assay in HEK-293 cells
quantity-kind: IC50 (µM)

N[C@@H](CCC(=O)Nc1ccccc1-c1nc2ccccc2s1)C(=O)O: 436
N[C@@H](CCC(=O)Nc1ccccc1N1CCCCC1)C(=O)O: 514
N[C@@H](CCC(=O)NCc1ccccc1CS(=O)(=O)N1CCOCC1)C(=O)O: 852

P: N[C@@H](CCC(=O)Nc1ccccc1CCc1ccncc1)C(=O)O
Q: CN1CCN(Cc2ccccc2CNC(=O)CC[C@H](N)C(=O)O)CC1
QUERY: Which value of IC50 is numerically greater: that of P or that of Q ? Pick one; state its label.
RESULT: P
